- Test system: UACC-62
- test method notes: NCI tumour cell line growth inhibition, 48 h
Active and inactive are the calls of the source. No stated cut-off is given here; in the data, active = GI50 up to about 1.1 µM and inactive = higher.
Recorded GI50, one value per entry.
value type: GI50

molecule=Cc1ccc(N2C=Nn3c(nc4sc5c(c4c3=O)CCCC5)C2)cc1 observed_value="> 100 µM (inactive)"
molecule=Nc1cc2c3c(cccc3c1)C(=O)N(c1ccc(OCCN3CCCC3)cc1)C2=O observed_value="16.6 µM (inactive)"
molecule="COC(=O)C1=CC2C(=O)OC1C1C(=O)NC(=O)C21 (stereo not given)" observed_value="> 100 µM (inactive)"
molecule="Cc1cc(Cl)cc2c1NC(=O)C2(O)C(C(=O)c1ccccc1)c1ccccc1 (stereo not given)" observed_value="17.3 µM (inactive)"
molecule=O=C1C([N-]S(=O)(=O)c2ccccc2)=C([n+]2ccc(Cc3ccccc3)cc2)C(=O)c2ccccc21 observed_value="1.15 µM (inactive)"
molecule=c1c2c(cc(-n3nnc4c3CCCCCC4)c1-n1nnc3c1CCCCCC3)CCCCCC2 observed_value="12.4 µM (inactive)"
molecule="COc1nc(=O)n(COC(CO)CN2C(=O)c3ccccc3C2=O)cc1Cc1cccc(OCc2ccccc2)c1 (stereo not given)" observed_value="14.6 µM (inactive)"
molecule=O=C1N/C(=N\N=C\c2ccccc2)C2(CCCCC2)O1 observed_value="> 100 µM (inactive)"
molecule=CN(C)CCNC(=O)c1cccc2[nH]c(-c3ccccc3)nc12 observed_value="18.5 µM (inactive)"
molecule=CCOC(=O)Cn1c(=O)n(C)c(=O)c2[nH]cnc21 observed_value="> 100 µM (inactive)"
